Value source: patent US20250320233A1

Test system: Primary Peripheral Blood Mononuclear Cells (PBMC)
Assay: PBMC activity evaluation test (T cell proliferation suppressed by synthetic arginase 1, CellTiter-Glo)
Assay type: cell-based
Conditions: PBMC, 72 h
Method: A Primary Peripheral Blood Mononuclear Cells (PBMC) activity test was performed for the compound according to the present disclosure. […] To evaluate the proliferation of T cells, the CellTiter-Glo® Luminescent Cell Viability (Promega, Catalog #G7571) evaluation method was used, which can confirm the proliferation of cells by quantifying the ATP present in the cells. […] After performing the reaction at room temperature for 10 minutes in the state where light was blocked, the luminescence was measured. […]
MEASURE: EC50

May I ask what EC50 has been recorded for C[C@H](N)C(=O)N1C[C@H](CCCB(O)O)[C@](N)(C(=O)O)C1 [CB-1158 (Numidargistat), Numidargistat, reference compound] ?
100 to 500 nM

* * *

Counter-ions that a name gives are not always drawn.
These records show IC50 for Arginase-1 (Homo sapiens (Human), UniProt P05089).

Lookup: IC50 / Arginase-1 (Homo sapiens (Human), UniProt P05089) / CNCCN1CC[C@H]2[C@@H]1CN[C@@]2(CCCCB(O)O)C(=O)O [Example 28, hydrochloride]
0.1 to 1 µM

// fetch Arginase-1 (Homo sapiens (Human), UniProt P05089) IC50 for CC(C)[C@H](N)C(=O)N1CC[C@H]2[C@@H]1CN[C@@]2(CCCCB(O)O)C(=O)O [Example 6, dihydrochloride]
> 1 µM

Form: Entry = O=C([C@@H]1CCCN1)N1CC[C@H]2[C@@H]1CN[C@@]2(CCCCB(O)O)C(=O)O [Example 4, dihydrochloride] | System = Arginase-1 (Homo sapiens (Human), UniProt P05089) | IC50 = ____
0.1 to 1 µM

Requested read-out IC50, target or system Arginase-1 (Homo sapiens (Human), UniProt P05089), entry C[C@@H](N)C(=O)N1CC[C@H]2[C@@H]1CN[C@@]2(CCCCB(O)O)C(=O)O [Example 9, dihydrochloride]
> 1 µM

Notebook: pull reported IC50 for Arginase-1 (Homo sapiens (Human), UniProt P05089), entry O=C(O)[C@]1(CCCCB(O)O)NC[C@@H]2NCC[C@@H]21 [Example 1, dihydrochloride]
< 0.1 µM

Request: IC50, test system Arginase-1 (Homo sapiens (Human), UniProt P05089), entry CC(C)C[C@H](N)C(=O)N1CC[C@H]2[C@@H]1CN[C@@]2(CCCCB(O)O)C(=O)O [Example 7, dihydrochloride]
> 1 µM
